- Tested on: LOX IMVI melanoma
- RUN DESCRIPTION: NCI tumour cell line growth inhibition, 48 h
VALUE TYPE: TGI

# example entries with known answers
MOLECULE: COc1ccc(C2=C(c3ccccc3)C(=O)N3CCCC3C2)cc1 (stereo not given)
MEASURED ON: LOX IMVI melanoma
TGI: > 100 µM

MOLECULE: Cc1cc2c(cc1Cl)SC(NNCCO)=NS2(=O)=O
MEASURED ON: LOX IMVI melanoma
TGI: > 100 µM

MOLECULE: O=c1cccccc1[O-].O=c1cccccc1[O-].O=c1cccccc1[O-].[Nd+3]
MEASURED ON: LOX IMVI melanoma
TGI: > 100 µM

MOLECULE: OC1(C(Sc2ccccc2)Sc2ccccc2)CCCCCC1
MEASURED ON: LOX IMVI melanoma
TGI: 40 µM

MOLECULE: CCOC(=O)C(C(=O)OCC)=C1C=C(c2ccccc2)c2ccccc21
MEASURED ON: LOX IMVI melanoma
TGI: > 100 µM

MOLECULE: CC(CC(=O)N1C2CC3CCC2(CS1(=O)=O)C3(C)C)[Si](C)(C)C (stereo not given)
MEASURED ON: LOX IMVI melanoma
TGI: > 100 µM

MOLECULE: N#Cc1c(-c2ccccc2)cn(C(=O)c2ccccc2)c1N
MEASURED ON: LOX IMVI melanoma
TGI: > 100 µM

MOLECULE: O=C(c1ccccc1)c1ccc(N2C(=O)/C(=C/c3ccccc3S)N=C2c2ccccc2)c(N2C(=O)/C(=C/c3ccccc3S)N=C2c2ccccc2)c1
MEASURED ON: LOX IMVI melanoma
TGI: 62.9 µM

Exercise: I'd like to know its TGI. The molecule in question is COc1cccc(CCn2c(N)c(-c3cc(Cl)cc(Cl)c3)c3ccc([N+](=O)[O-])cc3c2=O)c1
Key: > 56.1 µM

Exercise: Endpoint output: TGI of NS(=O)(=O)c1ccc(N=Nc2c(O)[nH]c3ccc(C(=O)NCCCn4ccnc4)cc23)cc1 . Value?
Key: > 25 µM

###

Entries and their TGI values follow.
- System: MDA-MB-231 breast
- RUN DESCRIPTION: NCI tumour cell line growth inhibition, 48 h
Report the value in µM with no unit label.

Consider the reported TGI for these compounds:
COMPOUND: c1cc[n+](Cc2c3ccccc3cc3c2ccc2ccccc23)cc1
UNIT TAG: µM
TGI: 20
--
COMPOUND: COc1cc(/C=C2\CCC/C(=C\c3cc(CN4CCCC4)c(O)c(OC)c3)C2=O)cc(CN2CCCC2)c1O
UNIT TAG: µM
TGI: 12.8
--
COMPOUND: C[C@@]12CC[C@@H](O)C[C@@H]1CC[C@H]1[C@H]2CC[C@@]2(C)[C@H](c3ccc(=O)oc3)CC[C@@]12O
UNIT TAG: µM
TGI: 0.116

Please turn your attention to the following entry.
Exercise: Param item = CC(=O)OC1C(O)C(C)OC(OC2C(OC(=O)C3CCC4C(C3)OC3(CC(OC(=O)/C=C/c5ccccc5)C(C)CO3)C43CO3)OC(C)C(O)C2OC(C)=O)C1O (stereo not given) ; retrieve measured TGI.
Key: 0.101

###

- Tested on: NCI-H23 lung
- RUN DESCRIPTION: NCI tumour cell line growth inhibition, 48 h
Listed molecules paired with reported TGI

MOLECULE: CSC12c3cc(C)n(-c4ccc(I)cc4)c3CC(C)(C)CN1C(=O)C2Oc1ccccc1 (stereo not given)
MEASURED ON: NCI-H23 lung
TGI: > 100 µM

Exercise: What value of measured TGI is listed for CC(=O)OC(C(=O)[O][Ge]([CH3])([CH3])[CH3])c1ccccc1 (stereo not given) ?
Key: > 100 µM

Exercise: Report TGI for O=S(=O)(NCCNc1nccc(-c2c(-c3ccc(F)cc3)nc3sccn23)n1)c1ccc(O)cc1 please.
Key: 28.1 µM

Exercise: Any idea what its TGI is? The molecule is CC(C)c1cnc(-c2cc(Cl)ccc2F)cc1Nc1ccncc1C(=O)NC(CO)CO
Key: 33.5 µM

Exercise: For N#CCCC(C#N)(C#N)CCC#N , what is its reported TGI?
Key: > 100 µM

Exercise: Form field: reported TGI of CNC(=O)/C=C/C1=CN2C(=O)c3ccc(C)c(O)c3NC(OC)C2C1 (stereo not given)
Key: < 0.0177 µM

Exercise: Recorded TGI for COc1ccc(/C(C)=C2\CCCN(Cc3ccccc3)C2)cc1 , please?
Key: 79.6 µM

Exercise: Which TGI value belongs to CCN(N=O)C1C2(CCCC2)NC(=O)C12CCCC2 (stereo not given) ?
Key: > 100 µM

Exercise: // TGI lookup, key: O=C(c1ccccc1)c1ccc(N2C(=O)/C(=C/c3cccc(Oc4ccccc4)c3)N=C2c2ccccc2)c(N2C(=O)/C(=C/c3cccc(Oc4ccccc4)c3)N=C2c2ccccc2)c1
Key: > 100 µM
